- target entity: Urotensin-2 receptor (Rattus norvegicus) (UniProt P49684)
- Sequence (P49684 whole entry): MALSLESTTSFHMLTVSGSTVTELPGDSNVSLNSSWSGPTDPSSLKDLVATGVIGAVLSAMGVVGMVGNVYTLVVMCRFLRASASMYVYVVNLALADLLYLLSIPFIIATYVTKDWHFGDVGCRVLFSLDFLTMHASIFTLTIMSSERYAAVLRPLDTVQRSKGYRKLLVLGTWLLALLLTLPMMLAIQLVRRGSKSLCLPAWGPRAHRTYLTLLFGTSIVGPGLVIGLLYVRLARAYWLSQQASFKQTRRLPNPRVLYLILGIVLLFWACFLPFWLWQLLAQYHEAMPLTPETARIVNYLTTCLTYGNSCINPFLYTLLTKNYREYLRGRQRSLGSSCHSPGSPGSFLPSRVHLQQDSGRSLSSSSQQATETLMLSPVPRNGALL
- experiment notes: Allosteric modulation of urotensin-2 receptor in Sprague-Dawley rat thoracic aorta assessed as change in URP-mediated aortic ring contraction by measuring URP Emax at 10^-5M preincubated for 15 mins followed by URP addition relative to KCl (reference value: 118 +/- 2%)
The following compounds are listed with their measured Emax values.
Hi! Could you send only the number? It should be in %, unit omitted.

Examples from the recorded data:
COc1ccc(CCC2=NN(CCCCN)C(=O)N(Cc3ccc(-c4ccccc4)cc3)c3ccccc32)cc1; 84
NCCCCN1N=C(CCc2nc3ccccc3s2)c2ccccc2N(Cc2ccc(-c3ccccc3)cc2)C1=O; 112

Moving on to another compound below.
Problem: // fetch Emax; item: COc1ccc(/C=C/C2=NN(CCCCN)C(=O)N(Cc3ccc4ccccc4c3)c3ccccc32)cc1 ; system: Urotensin-2 receptor (Rattus norvegicus) (UniProt P49684)
Solution: 110
